Ref: the RNAGym collection of RNA variant scans (doi:10.7554/elife.80360)

B1: HDV Ribozyme (parent)
chain: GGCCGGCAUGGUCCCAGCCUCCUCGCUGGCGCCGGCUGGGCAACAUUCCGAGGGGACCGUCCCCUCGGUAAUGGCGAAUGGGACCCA

# Variants of: B1
# ASSAY_PROTOCOL: self-cleavage, relative activity (ratio to wild type); higher = more cleavage; co-transcriptional
Respond with Y for self-cleavage values of 0.4 and above, N for values below.

Would you say C21A U65A shows self-cleavage at minimum 0.4? N

Would you say G55C G59C shows self-cleavage at minimum 0.4? Y

Would you say G2C A70C shows self-cleavage at minimum 0.4? N

Would you say C26G G82U shows self-cleavage at minimum 0.4? Y

Would you say G5A G31U shows self-cleavage at minimum 0.4? N

Would you say U27C G54A shows self-cleavage at minimum 0.4? Y

Would you say C19A C22U shows self-cleavage at minimum 0.4? N

Would you say G6C G80U shows self-cleavage at minimum 0.4? N

Would you say G11C C61A shows self-cleavage at minimum 0.4? N

Would you say G6U C58G shows self-cleavage at minimum 0.4? Y

Would you say A8C U72A shows self-cleavage at minimum 0.4? N
